Test system: antigen HER2-positive breast cancer cell line HCC1954
Test: In vitro cytotoxicity of ADC (CellTiter Glo), HCC1954
Format: cell-based
Conditions: 0.1% O2, 168 hours, ADC DAR about 4
Method: The vial containing the target cells was gently stirred in a 37° C. water bath to be thawed. After the content was thawed, the vial was taken out from the water bath and decontaminated by immersion or spraying with 70% ethanol. The cells were re-suspended in the culture medium, settled and distributed into a culture flask with an area of 75 cm^2. […] The cells were harvested and counted to determine the number of cells;
Square brackets hold non-standard residues; d marks the D form. Peptide text beside a SMILES is read from it. * marks the point of attachment. Dolaproine = CO[C@@H]([C@@H]1CCCN1)[C@@H](C)C(=O)O; Dil = CC[C@H](C)[C@H](NC)[C@@H](CC(=O)O)OC; X1 = C[C@@H](N*)[C@@H](O)c1ccccc1; NMeV = CN[C@H](C(=O)O)C(C)C
Metric: pIC50
In textbook form, pIC50 equals minus log to base ten of the concentration in mol/L.

Item CC[C@H](C)[C@@H]([C@@H](CC(=O)N1CCC[C@H]1[C@H](OC)[C@@H](C)C(=O)N[C@H](C)[C@@H](O)c1ccccc1)OC)N(C)C(=O)[C@@H](NC(=O)[C@@H](NC)C(C)C)C(C)C [MMAE, monomethyl auristatin E] (H-[NMeV]V[Dil][Dolaproine]-X1) has what recorded pIC50?
10.15
